# System: TK-10
# PROCEDURE_DETAILS: NCI tumour cell line growth inhibition, 48 h
Activity calls are given as the source filed them. Rule as the data show it: active = GI50 up to about 1.1 µM and inactive = higher.
# Lookup of reported GI50 keyed by entry
MEASURED_METRIC: GI50

> print(dat)
                                   compound             measured
1  COc1ccc2cc(-c3nc(N)nc(N4N=C(C)CC4(C)C)n3)c(=N)oc2c1   32.6 µM (inactive)
2  COC(=O)C(C(=O)C(=O)Nc1cccc(O)c1)c1nc2ccc(Cl)cc2nc1O (stereo not given)  > 100 µM (inactive)
3     Cc1cccc(C)c1NC(=O)C(=O)Cc1nc2ccccc2s1  > 100 µM (inactive)
4  C[C@]12CC[C@@H]3c4cc(I)c(O)cc4CC[C@H]3[C@@H]1CC[C@@H]2O   9.68 µM (inactive)
5  c1ccc(Nc2nnc(CCCCCCCCc3nnc(Nc4ccccc4)o3)o2)cc1  > 100 µM (inactive)

====

# Tested on: SK-MEL-5
# PROCEDURE_DETAILS: NCI tumour cell line growth inhibition, 48 h
The source made the active and inactive calls. No stated cut-off is given here; in the data, active = GI50 up to about 1.1 µM and inactive = higher.
Outcome codes: 1 (yes) (active), 0 (no) (inactive)

> print(dat)
                                   compound  answer.label
1    O=S(=O)(O)C1=C2Sc3ccccc3N=C2c2ccccc2C1        0 (no)
2  CCOC(=O)N1CCC2C(=C(C)C(C)C3=C2C(=O)c2ccccc2C3=O)C1 (stereo unspecified)        0 (no)
3                   O/N=C/c1cc2c(cc1Br)OCO2        0 (no)
4  CCCCCc1cc2cc3c(c(O)c2c(=O)[nH]1)C1(CC3)C(=O)c2c(O)c3c(c(O)c2C1=O)C(=O)C(OC)=CC3=O (stereo unspecified)       1 (yes)
5  N#CC1C(=O)SC2c3ccccc3C(=O)c3ccccc3C12 (stereo unspecified)        0 (no)
6                   O=[S@@]1Nc2ccc(Br)cc2S1        0 (no)

====

# System: Hs-578T
# PROCEDURE_DETAILS: NCI tumour cell line growth inhibition, 48 h
Calls of active or inactive are those of the source. No stated cut-off is given here; in the data, active = GI50 up to about 1.1 µM and inactive = higher.
Outcome codes: 1 (yes) (active), 0 (no) (inactive)

MOLECULE	ANSWER_LABEL
COC(=O)C1=C(C)NC2=C(C(=O)c3ccccc32)C1c1cn(-c2ccccc2)nc1-c1ccccc1 (configuration not stated)	0 (no)
OC(c1ccc(F)cc1)(c1ccc(F)cc1)C1CC1	0 (no)
COC(=O)[C@H]1[C@H](C(=O)OC)[C@@H](C)c2c(ccc3c2[nH]c2ccccc23)[C@@H]1C	0 (no)
CCCCCC(=O)Nc1[nH]nnc1C(N)=O	0 (no)
COc1cc(S(=O)(=O)Nc2ccc(-c3csc(N4C(=O)C(C)SC4c4cccc(Oc5ccccc5)c4)n3)cc2)ccc1Cl (configuration not stated)	0 (no)
Cc1ccc(N/N=C/C2=CC(C)(C)C(C#N)(C#N)C(O)=C2C#N)cc1	0 (no)
C=CCOC(=O)CC[N+]1=CCC(c2ccccc2)(c2ccccc2)O1	0 (no)
Cc1cnc(-n2c(C)nc3cc(Cl)ccc3c2=O)s1	0 (no)
S=C1NC2=C(COc3ccccc32)C(c2ccc(Cl)cc2)N1 (configuration not stated)	0 (no)
CN(C)c1ccc(-c2[nH]c(=O)c3ccccc3[n+]2C)cc1	0 (no)
CC(C)/C(Cl)=N/OC(=O)Nc1ccc(Cl)c(Cl)c1	0 (no)
CCN(CC)CCOC(=O)Cc1cccc2c(=O)cc(-c3ccccc3)oc12	0 (no)
Cc1ccc(/C=C/C(=O)Oc2ccc(/C=C3\CCC/C(=C\c4ccc(OC(=O)/C=C/c5ccc(C)cc5)cc4)C3=O)cc2)cc1	0 (no)
CC1(C)O[C@@H]2COC(=O)[C@@H]2O1	0 (no)
C=C1CCC(CC[C@@H]2CC[C@]3(OC2)O[C@@]2(O)CC[C@]3(C)OC2(C)C)C(C)(C)[C@H]1C/C=C1/C(=O)OC[C@@H]1O (some centres not stated)	0 (no)
O=C(c1ccc(O)c([N+](=O)[O-])c1)c1ccc(O)c([N+](=O)[O-])c1	0 (no)
O=C1CS(=O)(=O)C(c2cccc(Oc3ccccc3)c2)N1c1cc(Cl)ccc1Cl (configuration not stated)	0 (no)
Nc1nc(F)nc2c1ncn2C1OC(COP(=O)(O)O)C(O)C1O (configuration not stated)	0 (no)
c1csc(-c2ccc(-c3ccc(-c4ccc(-c5cccs5)s4)s3)s2)c1	0 (no)
O=C(ON=c1c2ccccc2ccc2ccccc12)c1ccccc1	0 (no)
CC1=CC(=O)[C@@H](O)[C@]2(C)[C@H]3[C@@]4(O)OC[C@@]35[C@@H](C[C@@H]12)OC(=O)C(OC(=O)CC1=CCCC1)[C@H]5[C@@H](C)[C@H]4O (some centres not stated)	1 (yes)
O=C1c2ccccc2C(=O)N1CCCCNOCCCN1C(=O)c2ccccc2C1=O	0 (no)
Cc1cccc2c(N)c3cccc(C(=O)NCC[N+](C)(C)[O-])c3nc12	0 (no)
COC(=O)c1c2c(cc3c1CC1(C3)Cc3cc4c(c(C(C)=O)c3C1)CCC4)C=CC2 (configuration not stated)	0 (no)
CN(CCc1ccccn1)c1ccc2c(c1)Cc1ccccc1-2	0 (no)
O=C(O)c1c(CC(Cc2ccc3c(c2)CCCC3)C(=O)O)ccc2c1CCCC2 (configuration not stated)	0 (no)
Cc1n[nH]c(=O)n1/N=C/c1cccs1	0 (no)

====

# Test system: HT-29
# PROCEDURE_DETAILS: NCI tumour cell line growth inhibition, 48 h
Calls of active or inactive are those of the source. No stated cut-off is given here; in the data, active = GI50 up to about 1.1 µM and inactive = higher.
Outcome codes: active, inactive

> print(dat)
                                    compound  answer.label
 1  CC(C)(CO)NC1=C(Cl)C(=O)c2c(O)ccc(O)c2C1=O      inactive
 2  COc1cc2c(c(OC)c1OC)-c1ccc(SC)c(=O)cc1C(CO)C2 (configuration not stated)        active
 3  Cc1cc(N(CCC#N)CCC#N)ccc1C(/N=N/c1ccc(Cl)cc1)=N\NC(=O)c1cc(Cl)ccc1O      inactive
 4  CN1CCCC2[C@@H]3CCC4=C(O)C(=O)CC[C@]4(C)C3CC[C@@]21C (some centres not stated)      inactive
 5  N#CC(C(=O)CCC(=O)Nc1ccc(Cl)cc1)c1ccc(Cl)cc1 (configuration not stated)      inactive
 6       CCOC(=O)CCCSCCCC(=O)CCCSCCCC(=O)OCC      inactive
 7  CC(C)c1ccc2c(c1)/C(=C1/Nc3ccccc3/C1=N/O)C(=O)N2      inactive
 8  O=c1/c(=C/c2ccc([N+](=O)[O-])o2)sc2n1[C@@H](c1ccc3c(c1)OCO3)C=C(c1cc(F)c(Cl)cc1Cl)N=2      inactive
 9  C[C@@H](NS(=O)(=O)c1ccc(NC(=O)c2ccccc2)cc1)C(=O)O      inactive
10         Cn1c2cn[nH]c(=O)c2c2ccc3ccccc3c21      inactive
11                      CCNC(=O)Nc1cccc(C)n1      inactive
12        CN(C)CCCN1c2ccccc2Sc2ccc3ccccc3c21      inactive
13                   O=[S@@]1Nc2ccc(Br)cc2S1      inactive
14   COc1cc2cc3c4c(cc(OC)c(OC)c4c2cc1OC)CCN3      inactive
15  O=c1[nH]c2c(nc1NC13CC4CC(CC(C4)C1)C3)c(=O)oc1ccccc12      inactive
16  CC(=O)OCC1OC(n2c(C)c(/N=N/c3ccc(Cl)cc3)c(C)c(C#N)c2=S)C(OC(C)=O)C(OC(C)=O)C1OC(C)=O (configuration not stated)      inactive
17  COCC1N=C(c2cc(OC)c(OC)c(OC)c2-c2cc3c(cc2[C@@H](C)O)OCO3)O[C@H]1c1ccccc1 (some centres not stated)      inactive
18  CCOC(=O)C(O)Cc1cnc2ccccc2n1 (configuration not stated)      inactive
19                COc1nc(C)nc2sc3c(c12)CCCC3      inactive
20           Cc1ccccc1-c1nc2c(N)nc(N)nc2nc1N      inactive
21  CC(=O)NNc1nc(C)c(C(/C=C/c2ccc(Cl)cc2)=N\N=C(N)N)s1      inactive
22  CCN(CC)CC(=O)NC1c2ccccc2Oc2c(C)cccc21 (configuration not stated)      inactive

====

# Lookup of reported GI50 keyed by entry
# System: A498
# PROCEDURE_DETAILS: NCI tumour cell line growth inhibition, 48 h
Calls of active or inactive are those of the source. Rule as the data show it: active = GI50 up to about 1.1 µM and inactive = higher.
MEASURED_METRIC: GI50

> print(dat)
                                    compound  target.system             measured
 1      CN(CCc1ccccn1)c1ccc2c(c1)Cc1ccccc1-2           A498   16.8 µM (inactive)
 2      Clc1ccc2c(NCCCC/N=C/c3ccccc3)ccnc2c1           A498   3.01 µM (inactive)
 3  CCOC(=O)c1cc(NC(=O)N(CCC#N)CCN(C(=O)N[C@@H](Cc2ccccc2)C(=O)N[C@@H](CC(C)C)C(=O)NC)c2ccccc2)ccc1OC           A498   63.7 µM (inactive)
 4                O=CN1CCN(C(=O)c2ccco2)C1=S           A498   16.5 µM (inactive)
 5  [N-]=[N+]=NC1C2CC3CC(C2)CC1C3 (stereo not given)           A498  > 100 µM (inactive)
 6  CN(CCc1ccccn1)c1ccc2c(c1)C(=O)c1ccccc1-2           A498   35.2 µM (inactive)
 7    Cc1nc2ccccc2c(=O)n1NC(=S)Nc1cccc(Cl)c1           A498  > 100 µM (inactive)
 8  Cc1ccc(S(=O)(=O)N/N=C/c2oc(-c3ccccc3Cl)c(-c3ccccc3Cl)c2[N+](=O)[O-])cc1           A498   20.8 µM (inactive)
 9  CCOC(=O)C(Cc1c(-c2[nH]c3ccccc3c2CC(NC(=O)CNC(C)=O)C(=O)OCC)[nH]c2ccccc12)NC(=O)CNC(C)=O (stereo not given)           A498     65 µM (inactive)
10                COc1nc(C)nc2sc3c(c12)CCCC3           A498  > 100 µM (inactive)
